- experimental_protocol: nuclear p53 accumulation, HPV+ cells – imaging, p53-positive nuclei imaging, 24 h, 48 h (AID 1508601)
- study_conditions: 24/48 h, measured here: cell number at 48 h, Library stock concentration: 500 nM
Among all 5,700 compounds or so, about 85 (1%) were called active. The full list was thinned out, with actives kept by preference.
The following molecules are listed with their measured nuclei count, normalised values.
readout_label: nuclei count, normalised

• CC(=O)NC(CSC(=S)NSc1ccc(SNC(=S)SCC(NC(C)=O)C(=O)O)cc1)C(=O)O (stereo not given) = 111%
• CN(NC(=O)CC(=O)NN(C)C(=S)c1ccccc1)C(=S)c1ccccc1 = 104%
• COc1ccc(N2C(=O)C(=Cc3ccc([N+](=O)[O-])s3)SC2=S)cc1 = 110%
• N#CSc1cc(SC#N)c(N)nc1N = 108%
• OC(c1cc(C(F)(F)F)nc2c(C(F)(F)F)cccc12)[C@H]1CCCCN1 (stereo not given in full) = 105%
• Nc1ccn(C2C=C(CO)C(O)C2O)c(=O)n1 (stereo not given) = 109%
• CCOC(=O)c1sc(NC(=O)c2ccco2)c(SC#N)c1C = 111%
• NC(=O)c1ncn(C2OC(CO)C(O)C2O)c1O (stereo not given) = 106%
• OCC1OC(n2cnc3c2NC=NCC3O)CC1O (stereo not given) = 119%
• C=C1C(=O)OC(CCCCCCCC)C1C(=O)O (stereo not given) = 112%

----------
nuclei count, normalised: recorded values
- experimental_protocol: nuclear p53 accumulation, HPV+ cells – imaging, p53-positive nuclei imaging, 24 h, 48 h (AID 1508601)
- study_conditions: 24/48 h, measured here: cell number at 24 h, concentration not given here
Among all 5,700 compounds or so, about 85 (1%) were called active. The list comes from a sample in which actives are over-represented; it also holds close analogues and randomly drawn compounds.
readout_label: nuclei count, normalised (%)

- CCCCCCCCCCCCCCCCCC(=O)OCC: 111
- O=C1Cc2c([nH]c3ccc(Br)cc23)-c2ccccc2N1: 97.1
- Cc1nsc(NC(=O)NCCC2CCCCCC2)n1: 106
- O=Nc1c(-c2c(O)[nH]c3cc(Br)ccc23)[nH]c2ccccc12: 104
- COc1cc(C(=O)NCc2ccc(OCCN(C)C)cc2)cc(OC)c1OC: 106
- CCCCC/C=C\C/C=C\C/C=C\C/C=C\CCCC(=O)C(F)(F)F: 108
- CCN(CC)C(=O)N1CCN(C)CC1: 108
- C/C=C/C(=O)O[C@H](COCCCCCCCCCCCCCCCC)COP(=O)([O-])OCC[N+](C)(C)C: 91.3
- CCCCC/C=C\C/C=C\C/C=C\CCCCCCC(=O)OC: 114
- Cc1nn(C)cc1-c1ccnc(N2CCCC(c3nc4c(C)cccc4[nH]3)C2)n1 (stereo unspecified): 103
- CC(C)OC(=O)CCC/C=C\C[C@@H]1[C@@H](/C=C/[C@@H](O)CCc2ccccc2)[C@H](O)C[C@@H]1O: 106

----------
- target_of_assay: Cellular tumor antigen p53 (Homo sapiens) (UniProt P04637)
- Sequence (P04637 whole entry, looked up): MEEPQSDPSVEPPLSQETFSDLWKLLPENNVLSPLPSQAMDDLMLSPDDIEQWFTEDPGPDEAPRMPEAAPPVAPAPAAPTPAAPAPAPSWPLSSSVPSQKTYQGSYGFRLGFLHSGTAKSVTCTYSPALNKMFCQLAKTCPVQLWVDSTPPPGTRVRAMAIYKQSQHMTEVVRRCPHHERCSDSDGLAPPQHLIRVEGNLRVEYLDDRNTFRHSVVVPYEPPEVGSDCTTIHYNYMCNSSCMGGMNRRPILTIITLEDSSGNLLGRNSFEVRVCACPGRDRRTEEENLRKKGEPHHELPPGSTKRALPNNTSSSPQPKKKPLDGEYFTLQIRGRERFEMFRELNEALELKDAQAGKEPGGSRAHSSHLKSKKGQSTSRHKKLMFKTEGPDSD
- experimental_protocol: nuclear p53 accumulation, HPV+ cells – imaging, p53-positive nuclei imaging, 24 h, 48 h (AID 1508601)
- study_conditions: 24/48 h, Library stock concentration: 3.33 mM, stronger effect = higher value
About 85 (1%) of roughly 5,700 compounds were called active. For the sample, actives were picked, then their nearest neighbours and some compounds at random. Peptide text beside a SMILES is read from it. * marks the point of attachment. Cbz = O=C(OCc1ccccc1)*
Each item that follows carries a reported p53-positive nuclei, normalised.
readout_label: p53-positive nuclei, normalised (%)

* O=C1O[C@H](C(O)CO)C(O)C1O (stereo partly drawn) | -0.204
* CC1(C)SC2C(NC(=O)C(NC(=O)N3CCNC3=O)c3ccccc3)C(=O)N2C1C(=O)O (stereo not drawn) | -0.143
* CC(C)CC(NC(=O)CNC(=O)c1cc(Cl)ccc1Cl)B(O)O (stereo not drawn) | 98
* COc1ccc(Cn2ccc3ccc(C(=O)NO)cc32)cc1 | 0.097
* COC(=O)[C@]12CCC(C)(C)C[C@@H]1[C@@H]1C(=O)C=C3[C@]4(C)C=C(C#N)C(=O)C(C)(C)[C@@H]4CC[C@@]3(C)[C@]1(C)CC2 | 79.7
* Nc1ccccc1NC(=O)c1ccc(CNc2nccc(-c3cccnc3)n2)cc1 | 23.5
* COc1cccc2c1C(=O)c1c(O)c3c(c(O)c1C2=O)C[C@@](O)(C(=O)CO)C[C@@H]3OC1CC(N)C(OC2CCCCO2)C(C)O1 (stereo partly drawn) | 16.4
* CC(C)CC(NC(=O)CNC(=O)c1cc(Cl)ccc1Cl)B1OC(=O)CC(CC(=O)O)(C(=O)O)O1 (stereo not drawn) | 97.7
* CCN(CC)Cc1ccc2cc(COC(=O)Nc3ccc(C(=O)NO)cc3)ccc2c1 | 95.7
* COc1cc(=C2C=c3ccccc3=N2)[nH]c1=Cc1[nH]c(C)cc1C | 137
* COC1=C2CC(C)CC(OC)C(O)C(C)C=C(C)C(OC(N)=O)C(OC)C=CC=C(C)C(=O)NC(=CC1=O)C2=O (stereo not drawn) | -0.0882
* Cc1cc(OCc2nnc(SC3CCCC3)n2-c2cccnc2)ccc1-c1ccc(S(C)(=O)=O)cc1 | 3.08
* CN1CCC(c2c(O)cc(O)c3c(=O)cc(-c4ccccc4Cl)oc23)C1CO (stereo not drawn) | 49.6
* CCC(C(C)O)n1ncn(-c2ccc(N3CCN(c4ccc(OCC5CO[C@@](Cn6cncn6)(c6ccc(F)cc6F)C5)cc4)CC3)cc2)c1=O (stereo partly drawn) | -0.489
* CC(C)CC(=O)Nc1n[nH]c2c1CN(C(=O)C1CCN(C)CC1)C2(C)C | 45.4
* CC(C)CC(C=O)NC(=O)C(CC(C)C)NC(=O)C(CC(C)C)NC(=O)OCc1ccccc1 (stereo not drawn) (Cbz-Leu-Leu-Leu-aldehyde; configuration not given here) | 92
* CC(C)C(=O)Oc1ccc(CO)cc1C(CCN(C(C)C)C(C)C)c1ccccc1 (stereo not drawn) | -0.0601
* O=C(C=Cc1cccc(S(=O)(=O)Nc2ccccc2)c1)NO | 46
